Where do these numbers come from? They come from paper PMC8146408.

experiment: Plasma stability, human plasma; assay type: in vitro ADME; details: pH 7.4, n = 3, read-out: Plasma Stability t1/2
parameter.measured: half-life at 1 µM

INSERT INTO measurements (molecule, parameter_measured, result) VALUES
  ('Cc1cc(NC(=O)c2cnc3nc4ccccc4n3c2C)ccc1F [ZW-1841]', 'half-life at 1 µM', '> 6 h'),
  ('Cc1cc(NC(=O)c2c(C)[nH]c(=O)c3c(N)n[nH]c23)ccc1F [ZW-1847]', 'half-life at 1 µM', '> 6 h');

====

assay: Plasma stability, mouse plasma; assay type: in vitro ADME; settings: CD-1, pH 7.4, n = 3, read-out: Plasma Stability t1/2
Recorded measurements of half-life at 1 µM, one per entry
parameter.measured: half-life at 1 µM

INSERT INTO results (molecule, result) VALUES
  ('Cc1cc(NC(=O)c2cnc3nc4ccccc4n3c2C)ccc1F [ZW-1841]', '> 6 h'),
  ('Cc1cc(NC(=O)c2c(C)[nH]c(=O)c3c(N)n[nH]c23)ccc1F [ZW-1847]', '> 6 h');
